test system: Rabbit Psoas myofibrils (skeletal myosin ATPase); test: Myofibril ATPase assay, rabbit psoas (skeletal) myofibrils; format: biochemical; details: Y75 value (no ‡ mark); rabbit psoas myofibrils
# Skeletal EC25 >= 2000 nM gives TRUE, anything below gives FALSE

// query Textbook exercise: given the entry C[C@@H](NC(=O)Cc1cc2ccc(F)cc2[nH]c1=O)c1ncc(C#N)cn1 (single isomer, unassigned) , state whether its Skeletal EC25 is greater than or equal to 2000 nM.
// result TRUE

// query Answer whether Skeletal EC25 of `Cc1c(CC(=O)N[C@@H](C)c2cnc(C#N)cn2)c(=O)[nH]c2cc(F)c(F)cc12` is greater than or equal to 2000 nM.
// result FALSE

// query Assess whether reported Skeletal EC25 for `Cc1cc(C#N)nnc1[C@H](C)NC(=O)Cc1c(C)c2cc(F)ccc2[nH]c1=O` sits at 2000 nM or higher.
// result FALSE

// query Could you please find out whether C[C@H](NC(=O)[C@H](C)c1cc2c(F)cccc2[nH]c1=O)c1ccc(F)cc1F (single isomer, unassigned) has Skeletal EC25 that meets 2000 nM or exceeds it?
// result FALSE

// query Please tell me: is the molecule `Cc1c(CC(=O)N[C@H](C)c2ccc(C#N)nn2)c(=O)[nH]c2cccc(C#N)c12` at or over 2000 nM in terms of Skeletal EC25?
// result FALSE

// query Does the molecule `C[C@H](NC(=O)Cc1cc2cc(F)c(F)cc2[nH]c1=O)c1cnc(C#N)cn1` have recorded Skeletal EC25 that is 2000 nM or more?
// result TRUE

// query Has `Cc1c(F)ccc2[nH]c(=O)c(CC(=O)N[C@H](C)c3ccc(C#N)cc3F)c(O)c12` a recorded Skeletal EC25 greater than or equal to 2000 nM?
// result TRUE

// query Entry Cc1c(CC(=O)N[C@@H](C)c2ncc(C#N)cn2)c(=O)[nH]c2ccc(F)c(C#N)c12 (single isomer, unassigned) : is its Skeletal EC25 no less than 2000 nM?
// result FALSE

// query Hi team, for `Cc1c(CC(=O)N[C@H](C)c2ccc(C#N)nn2)c(=O)[nH]c2ccc(F)c(F)c12` , is the recorded Skeletal EC25 at or above 2000 nM?
// result FALSE

// query Can `C[C@@H](NC(=O)Cc1c(C2CC2)c2c(F)c(F)ccc2[nH]c1=O)c1ccc(C#N)cn1` be said to have Skeletal EC25 at or above 2000 nM?
// result FALSE

// query In plain terms: is recorded Skeletal EC25 at least 2000 nM for C[C@H](NC(=O)[C@@H](C)c1cc2c(F)cccc2[nH]c1=O)c1ccc(F)cc1F (single isomer, unassigned) ?
// result TRUE

// query Does `C[C@H](NC(=O)Cc1c(C2CC2)c2c(F)cccc2[nH]c1=O)c1ncc(C#N)cc1F` have a reported Skeletal EC25 of at least 2000 nM?
// result FALSE

// query Check the entry Cc1cc(F)cnc1[C@H](C)NC(=O)C1(c2cc3c(F)c(F)ccc3[nH]c2=O)CC1 (single isomer, unassigned) : does Skeletal EC25 equal or exceed 2000 nM?
// result TRUE

// query Confirm if Skeletal EC25 reported for the molecule `C[C@H](NC(=O)Cc1c(C2CC2)c2cc(F)ccc2[nH]c1=O)c1ccc(C#N)cn1` is 2000 nM or above.
// result FALSE

// query In plain terms: is recorded Skeletal EC25 at least 2000 nM for Cc1c(C2(C(=O)N[C@H](C)c3cc(C#N)ccn3)CC2)c(=O)[nH]c2ccc(F)cc12 (single isomer, unassigned) ?
// result TRUE

// query Please check the record C[C@H](NC(=O)C(F)(F)c1cc2c(F)c(F)ccc2[nH]c1=O)c1ncc(C#N)cn1 (single isomer, unassigned) and state if its Skeletal EC25 is at or above 2000 nM.
// result FALSE

// query Record `Cc1c(CC(=O)N[C@H](C)c2ccc(C#N)cn2)c(=O)[nH]c2ccc(F)c(F)c12` ; criterion: Skeletal EC25 no lower than 2000 nM. Met?
// result FALSE

// query Dear colleague, could you confirm whether CC(NC(=O)C(F)(F)c1cc2cc(F)ccc2[nH]c1=O)c1cc(C#N)ccn1 (single isomer, unassigned) has Skeletal EC25 at or above 2000 nM?
// result TRUE

// query Quick check: does C[C@@H](NC(=O)C1(c2cc3c(F)c(F)ccc3[nH]c2=O)CC1)c1cc(C#N)ccn1 (single isomer, unassigned) have Skeletal EC25 greater than or equal to 2000 nM?
// result TRUE

// query Given the entry `C[C@H](NC(=O)Cc1c(C2CC2)c2cc(F)ccc2[nH]c1=O)c1ccc(F)cc1F` , answer whether its Skeletal EC25 meets or surpasses 2000 nM.
// result FALSE

// query # check: Skeletal EC25 of `Cc1c(CC(=O)N[C@H]2CCc3cc(C#N)cnc32)c(=O)[nH]c2ccc(F)cc12` is greater than or equal to 2000 nM
// result TRUE

// query hey, is Skeletal EC25 for this one >= 2000 nM? `N#Cc1ccc([C@@H](CO)NC(=O)Cc2c(C3CC3)c3cc(F)ccc3[nH]c2=O)c(F)c1`
// result TRUE

// query Hi team, for Cc1cc([C@H](C)NC(=O)Cc2c(C)c3c(C)c(F)ccc3[nH]c2=O)ncc1F (single isomer, unassigned) , is the recorded Skeletal EC25 at or above 2000 nM?
// result FALSE

====

Molecular target: Porcine ventricle myofibrils (ventricular myosin ATPase) (Sus scrofa)
Construct: Myofibrils from porcine cardiac muscle was isolated from the left ventricle of Yucatan minipigs; tissue Exemplar Genetics; host or cells: left ventricle of Yucatan minipigs, myofibrils prepared in house
Sequence (P79293 whole entry): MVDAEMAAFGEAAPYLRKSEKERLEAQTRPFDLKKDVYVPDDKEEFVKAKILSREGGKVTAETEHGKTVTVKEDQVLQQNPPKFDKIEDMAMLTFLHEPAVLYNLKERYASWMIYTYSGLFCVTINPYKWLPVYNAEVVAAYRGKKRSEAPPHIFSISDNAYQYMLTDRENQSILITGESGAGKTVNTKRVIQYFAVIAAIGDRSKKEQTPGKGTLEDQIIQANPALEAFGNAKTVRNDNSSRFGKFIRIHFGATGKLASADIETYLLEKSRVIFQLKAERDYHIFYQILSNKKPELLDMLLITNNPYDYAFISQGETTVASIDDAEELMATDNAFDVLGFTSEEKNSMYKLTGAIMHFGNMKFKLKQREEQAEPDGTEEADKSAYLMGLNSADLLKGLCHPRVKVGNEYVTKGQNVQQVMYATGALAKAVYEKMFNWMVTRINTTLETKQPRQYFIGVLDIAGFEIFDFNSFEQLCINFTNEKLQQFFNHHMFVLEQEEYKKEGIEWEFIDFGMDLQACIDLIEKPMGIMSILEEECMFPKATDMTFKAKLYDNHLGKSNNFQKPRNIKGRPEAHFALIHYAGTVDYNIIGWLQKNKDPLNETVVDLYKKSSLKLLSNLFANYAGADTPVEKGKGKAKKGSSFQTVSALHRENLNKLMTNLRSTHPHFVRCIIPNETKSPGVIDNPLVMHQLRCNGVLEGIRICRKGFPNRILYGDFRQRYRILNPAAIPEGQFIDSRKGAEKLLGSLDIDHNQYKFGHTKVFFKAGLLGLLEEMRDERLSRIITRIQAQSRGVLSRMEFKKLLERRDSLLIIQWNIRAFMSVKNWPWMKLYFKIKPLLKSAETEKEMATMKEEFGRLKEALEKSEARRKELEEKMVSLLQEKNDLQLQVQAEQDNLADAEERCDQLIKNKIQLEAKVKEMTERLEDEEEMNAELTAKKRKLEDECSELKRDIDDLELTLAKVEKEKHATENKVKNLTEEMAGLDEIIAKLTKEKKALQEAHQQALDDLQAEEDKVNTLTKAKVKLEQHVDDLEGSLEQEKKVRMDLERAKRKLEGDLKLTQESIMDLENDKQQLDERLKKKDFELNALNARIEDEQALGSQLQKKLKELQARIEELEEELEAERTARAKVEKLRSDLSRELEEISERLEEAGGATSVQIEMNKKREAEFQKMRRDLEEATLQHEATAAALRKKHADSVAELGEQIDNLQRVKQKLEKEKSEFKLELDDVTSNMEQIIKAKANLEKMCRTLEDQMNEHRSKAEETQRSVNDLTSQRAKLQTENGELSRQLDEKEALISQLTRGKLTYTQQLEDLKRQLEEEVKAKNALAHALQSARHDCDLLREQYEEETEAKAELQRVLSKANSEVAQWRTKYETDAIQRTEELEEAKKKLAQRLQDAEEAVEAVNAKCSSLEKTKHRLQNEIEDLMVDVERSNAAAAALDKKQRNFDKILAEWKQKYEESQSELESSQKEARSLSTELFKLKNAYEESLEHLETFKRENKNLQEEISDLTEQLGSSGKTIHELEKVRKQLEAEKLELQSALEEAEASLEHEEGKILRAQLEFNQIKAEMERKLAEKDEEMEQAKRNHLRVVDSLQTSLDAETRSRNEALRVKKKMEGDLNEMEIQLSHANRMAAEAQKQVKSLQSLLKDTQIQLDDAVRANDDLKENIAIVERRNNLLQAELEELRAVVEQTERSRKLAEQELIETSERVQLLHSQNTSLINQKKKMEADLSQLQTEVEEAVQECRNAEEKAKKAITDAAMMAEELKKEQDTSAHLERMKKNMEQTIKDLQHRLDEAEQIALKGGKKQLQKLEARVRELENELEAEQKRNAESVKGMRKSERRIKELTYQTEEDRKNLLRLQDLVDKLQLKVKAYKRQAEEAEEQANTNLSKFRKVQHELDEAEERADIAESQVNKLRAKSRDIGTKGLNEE
Assay: Myofibril ATPase assay, porcine ventricle myofibrils
Format: biochemical, porcine (Yucatan minipigs)
Conditions: porcine ventricle myofibrils; Y75 value
Method: Example 1. Myofibril ATPase Assay Myofibril ATPase assays are known in the art to be useful in evaluating small molecules for the treatment of HCM and other cardiac indications. Myosin ATPase activity is assessed by using a coupled reaction system, in which ADP generated by the myosin ATPase function is coupled to the disappearance of NADH through the pyruvate kinase/lactate dehydrogenase (PK-LDH) system. […]
metricName: Ventricular EC25 (µM)
Return type: number; implicit unit µM.

// query Report value only: Ventricular EC25, Porcine ventricle myofibrils (ventricular myosin ATPase) (Sus scrofa), C[C@H](NC(=O)[C@H](C)c1cc2c(F)nccc2[nH]c1=O)c1ccc(F)cc1F (single isomer, unassigned)
// result 43.64

// query Fill in: Ventricular EC25 on Porcine ventricle myofibrils (ventricular myosin ATPase) (Sus scrofa), entry `C[C@H](NC(=O)Cc1cc2c(C#N)nccc2[nH]c1=O)c1ccc(C#N)cn1`
// result 6.63

// query With Porcine ventricle myofibrils (ventricular myosin ATPase) (Sus scrofa) as the test system, provide measured Ventricular EC25 for this compound: `Cc1c(CC(=O)N[C@@H](C)c2ccc(F)cc2F)c(=O)[nH]c2ccncc12`
// result 7.29

// query Report the value of Ventricular EC25 obtained on Porcine ventricle myofibrils (ventricular myosin ATPase) (Sus scrofa) for Cc1c(CC(=O)N[C@H](CO)c2ncccc2F)c(=O)[nH]c2ccnc(C#N)c12 (single isomer, unassigned) .
// result 100.00

// query Report Ventricular EC25 on Porcine ventricle myofibrils (ventricular myosin ATPase) (Sus scrofa) for this entry: `Cc1c(CC(=O)N[C@@H](C)c2ccc(C#N)cc2F)c(=O)[nH]c2ccnc(C(F)(F)F)c12`
// result 0.11

// query Param request: Ventricular EC25 | system Porcine ventricle myofibrils (ventricular myosin ATPase) (Sus scrofa) | item Cc1nccc2[nH]c(=O)c(CC(=O)N[C@H]3COc4cc(C#N)cc(F)c43)c(C)c12 (single isomer, unassigned)
// result 20.24

// query Give reported Ventricular EC25 for Cc1c(CC(=O)N[C@H](C)c2ncc(F)cc2F)c(=O)[nH]c2ccnc(C(F)(F)F)c12 (single isomer, unassigned) (Porcine ventricle myofibrils (ventricular myosin ATPase) (Sus scrofa))
// result 100.00

// query State measured Ventricular EC25 of the compound COc1nccc2[nH]c(=O)c(CC(=O)N[C@H](C)c3ncc(C#N)cn3)c(C(F)(F)F)c12 (single isomer, unassigned) with Porcine ventricle myofibrils (ventricular myosin ATPase) (Sus scrofa).
// result 5.73

// query Answer briefly: Ventricular EC25 recorded on Porcine ventricle myofibrils (ventricular myosin ATPase) (Sus scrofa) for Cc1nccc2[nH]c(=O)c(CC(=O)N[C@@H](C)c3ncccc3F)c(C)c12 (single isomer, unassigned)
// result 100.00

// query Supply Ventricular EC25 measured with Porcine ventricle myofibrils (ventricular myosin ATPase) (Sus scrofa) for `Cc1c(CC(=O)N[C@@H](C)c2ccc(F)cc2F)c(=O)[nH]c2ccnc(N3CCOCC3)c12` .
// result 51.73

====

test system: Rabbit Psoas myofibrils (skeletal myosin ATPase); assay: Myofibril ATPase assay, rabbit psoas (skeletal) myofibrils; type: biochemical; conditions: rabbit psoas myofibrils; Y75 value
I'd be grateful if you could share measured Skeletal EC25 for these entries.
Record the value in µM, omitting the unit from your answer.

// query Complete the entry with Skeletal EC25 for `Cc1nccc2[nH]c(=O)c(CC(=O)N[C@@H](CO)c3ccncc3)c(C)c12`
// result 73.40

// query Return value of Skeletal EC25 for input Cc1c([C@@H](Cc2ccccc2)C(=O)N[C@@H](C)c2ccc(F)cc2F)c(=O)[nH]c2ccnc(F)c12 (single isomer, unassigned) , no commentary.
// result 100.00

// query Give recorded Skeletal EC25. `Cc1nccc2[nH]c(=O)c(CC(=O)N[C@H](C)c3cnc(C#N)cn3)c(C)c12`
// result 0.20

// query Identify measured Skeletal EC25 corresponding to CC(C(=O)N[C@@H](C)c1ccc(F)cc1F)c1cc2c(I)nccc2[nH]c1=O (stereo partly shown)
// result 0.40

// query In one line, give reported Skeletal EC25 of the entry Cc1c(CC(=O)N[C@@H](C)c2ncc(F)cc2F)c(=O)[nH]c2ccc(C#N)nc12 (single isomer, unassigned) .
// result 16.64

// query Note Skeletal EC25 for the compound shown: `Cc1nccc2[nH]c(=O)c(CC(=O)N[C@@H](C)c3ccc(C#N)cc3F)c(C#N)c12`
// result 0.04

// query Item `Cc1nccc2[nH]c(=O)c(CC(=O)N[C@@H](C)c3cnc(C#N)cn3)c(C)c12` : provide Skeletal EC25
// result 3.42
